Source listed as ChEMBL document CHEMBL1124039.

tested system: Angiotensin-converting enzyme (Oryctolagus cuniculus)
Sequence (P12822 whole entry): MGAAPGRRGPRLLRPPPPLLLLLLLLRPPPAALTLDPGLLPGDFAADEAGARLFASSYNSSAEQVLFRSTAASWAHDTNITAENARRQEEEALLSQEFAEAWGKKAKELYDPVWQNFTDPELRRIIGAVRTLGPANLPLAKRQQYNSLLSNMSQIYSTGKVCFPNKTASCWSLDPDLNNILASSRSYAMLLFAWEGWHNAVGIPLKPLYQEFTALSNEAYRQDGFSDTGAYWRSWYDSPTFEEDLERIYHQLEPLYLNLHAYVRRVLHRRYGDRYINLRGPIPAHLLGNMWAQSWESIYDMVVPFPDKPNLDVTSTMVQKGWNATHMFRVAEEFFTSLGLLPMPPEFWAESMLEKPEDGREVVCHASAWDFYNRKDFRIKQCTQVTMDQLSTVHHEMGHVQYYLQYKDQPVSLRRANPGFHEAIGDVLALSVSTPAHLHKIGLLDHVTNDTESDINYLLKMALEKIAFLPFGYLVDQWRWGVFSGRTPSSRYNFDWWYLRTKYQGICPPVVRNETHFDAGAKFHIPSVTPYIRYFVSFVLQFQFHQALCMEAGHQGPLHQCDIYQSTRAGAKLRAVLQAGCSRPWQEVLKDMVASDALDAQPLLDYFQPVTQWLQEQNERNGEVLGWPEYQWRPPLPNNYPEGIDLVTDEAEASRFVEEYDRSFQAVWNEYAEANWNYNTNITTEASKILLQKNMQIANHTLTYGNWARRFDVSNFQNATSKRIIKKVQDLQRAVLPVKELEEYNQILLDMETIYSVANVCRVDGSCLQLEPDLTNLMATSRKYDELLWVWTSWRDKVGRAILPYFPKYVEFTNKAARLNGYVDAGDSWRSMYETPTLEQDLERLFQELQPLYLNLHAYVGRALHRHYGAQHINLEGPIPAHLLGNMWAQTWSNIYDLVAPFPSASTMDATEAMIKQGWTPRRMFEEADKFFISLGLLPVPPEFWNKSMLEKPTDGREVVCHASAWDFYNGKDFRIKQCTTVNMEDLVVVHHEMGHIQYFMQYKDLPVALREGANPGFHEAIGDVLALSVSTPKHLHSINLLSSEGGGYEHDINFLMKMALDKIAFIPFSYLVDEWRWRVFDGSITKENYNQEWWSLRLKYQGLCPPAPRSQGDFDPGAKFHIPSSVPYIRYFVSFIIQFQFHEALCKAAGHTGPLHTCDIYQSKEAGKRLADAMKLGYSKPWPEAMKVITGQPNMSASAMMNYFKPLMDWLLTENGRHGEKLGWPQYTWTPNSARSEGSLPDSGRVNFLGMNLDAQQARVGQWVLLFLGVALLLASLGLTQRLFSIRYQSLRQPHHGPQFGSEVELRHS
Provide the reported pIC50 of each item.
Lab note: report pIC50 as minus log10 of the concentration in molar units, number only.

Query "O=C(O)CN1C[C@@H](c2ccccc2)CC[C@H](N[C@@H](CCc2ccccc2)C(=O)O)C1=O" yields pIC50 of 8.51

Query "O=C(O)CN1C(=O)[C@@H](N[C@@H](CCc2ccccc2)C(=O)O)CCC[C@@H]1c1ccccc1" yields pIC50 of 7.79
